Parameter: Kd. Scope: all listed entries.
# TARGET UNDER TEST: T1, huIL-18Rβ-HisAvi (human, UniProt O95256 20-356, biotinylated in the Octet blocking assay)
# T1 construct: Soluble analyte in all SPR runs; captured on streptavidin sensors in the Octet assay; also called human IL-18Rβ; human IL-18Rβ-Avi-His
# T1 sequence: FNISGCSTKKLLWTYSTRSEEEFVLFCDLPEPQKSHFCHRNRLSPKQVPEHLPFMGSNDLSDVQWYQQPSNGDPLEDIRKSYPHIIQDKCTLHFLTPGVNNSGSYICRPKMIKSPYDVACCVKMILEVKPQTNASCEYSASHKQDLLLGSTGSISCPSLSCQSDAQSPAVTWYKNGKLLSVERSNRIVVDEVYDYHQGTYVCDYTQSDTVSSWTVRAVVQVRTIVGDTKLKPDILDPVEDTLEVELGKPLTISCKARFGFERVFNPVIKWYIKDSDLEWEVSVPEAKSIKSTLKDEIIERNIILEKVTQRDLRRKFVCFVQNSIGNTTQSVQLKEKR
# TEST SUMMARY: SPR T200, mAb on anti-hFc, 37C, pH 7.4
Could you give me the number in nM? Just the number is fine.

• P20-V3 (antibody, human IgG1, kappa, V domains shown, Variant of P20) VH: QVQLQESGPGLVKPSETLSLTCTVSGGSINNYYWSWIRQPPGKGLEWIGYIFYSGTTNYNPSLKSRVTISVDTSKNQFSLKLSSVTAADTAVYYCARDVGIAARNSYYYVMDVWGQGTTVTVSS VL: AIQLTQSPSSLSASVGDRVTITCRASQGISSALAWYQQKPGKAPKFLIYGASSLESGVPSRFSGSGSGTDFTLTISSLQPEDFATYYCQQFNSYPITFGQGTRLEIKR = 0.72
• P21 (antibody, human IgG1, kappa, V domains shown, Human IgG) VH: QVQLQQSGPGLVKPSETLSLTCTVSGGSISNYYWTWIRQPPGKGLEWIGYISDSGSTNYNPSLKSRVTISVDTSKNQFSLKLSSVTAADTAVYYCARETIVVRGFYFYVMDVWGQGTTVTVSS VL: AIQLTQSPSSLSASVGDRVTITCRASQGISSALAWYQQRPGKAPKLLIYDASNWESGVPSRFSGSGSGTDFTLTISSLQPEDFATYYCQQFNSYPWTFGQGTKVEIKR = 1.8

Consider the binder shown here: P20-V1 (antibody, human IgG1, kappa, V domains shown, Variant of P20) VH: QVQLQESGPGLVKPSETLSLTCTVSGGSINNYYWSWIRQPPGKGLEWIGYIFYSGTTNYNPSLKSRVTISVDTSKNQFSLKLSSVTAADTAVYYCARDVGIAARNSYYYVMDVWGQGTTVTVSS VL: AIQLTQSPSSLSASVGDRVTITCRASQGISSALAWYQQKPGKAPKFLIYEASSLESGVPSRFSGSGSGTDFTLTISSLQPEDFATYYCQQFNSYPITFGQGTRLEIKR What is its recorded Kd?
0.43

Consider the binder shown here: P21-V1 (antibody, human IgG1, kappa, V domains shown, Variant of P21) VH: QVQLQESGPGLVKPSETLSLTCTVSGGSISNYYWTWIRQPPGKGLEWIGYISDSGSTNYNPSLKSRVTISVDTSKNQFSLKLSSVTAADTAVYYCARETIVVRGFYFYVMDVWGQGTTVTVSS VL: AIQLTQSPSSLSASVGDRVTITCRASQGISSALAWYQQKPGKAPKLLIYEASNWESGVPSRFSGSGSGTDFTLTISSLQPEDFATYYCQQFNSYPWTFGQGTKVEIKR What is its recorded Kd?
0.63

Consider the binder shown here: P20-V2 (antibody, human IgG1, kappa, V domains shown, Variant of P20) VH: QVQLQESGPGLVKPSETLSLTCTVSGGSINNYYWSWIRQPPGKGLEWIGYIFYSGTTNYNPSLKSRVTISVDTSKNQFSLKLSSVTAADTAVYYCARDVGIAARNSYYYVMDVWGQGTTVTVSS VL: AIQLTQSPSSLSASVGDRVTITCRASQGISSALAWYQQKPGKAPKFLIYEGSSLESGVPSRFSGSGSGTDFTLTISSLQPEDFATYYCQQFNSYPITFGQGTRLEIKR What is its recorded Kd?
0.24
